# TESTED SYSTEM: T1, human ferroportin (SLC40A1) fused in frame with GFP, stably expressed in HEK293 cells (human, UniProt Q9NP59 1-571)
# T1 sequence (looked up): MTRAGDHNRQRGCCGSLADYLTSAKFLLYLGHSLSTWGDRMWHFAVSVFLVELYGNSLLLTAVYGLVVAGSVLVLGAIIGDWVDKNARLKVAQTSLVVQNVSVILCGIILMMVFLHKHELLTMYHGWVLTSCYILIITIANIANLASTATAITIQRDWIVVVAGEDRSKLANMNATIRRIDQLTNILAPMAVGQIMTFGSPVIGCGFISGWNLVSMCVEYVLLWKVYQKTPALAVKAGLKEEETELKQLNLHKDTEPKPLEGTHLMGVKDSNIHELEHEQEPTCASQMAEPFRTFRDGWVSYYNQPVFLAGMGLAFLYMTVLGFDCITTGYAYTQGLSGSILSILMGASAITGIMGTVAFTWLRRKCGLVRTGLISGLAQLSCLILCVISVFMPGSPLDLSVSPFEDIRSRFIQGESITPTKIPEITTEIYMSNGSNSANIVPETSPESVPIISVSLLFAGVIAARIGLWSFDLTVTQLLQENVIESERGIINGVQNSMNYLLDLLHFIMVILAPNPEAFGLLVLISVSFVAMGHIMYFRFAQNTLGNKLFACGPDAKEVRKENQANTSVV
# ASSAY NOTES: cell-based or functional assay
Positions of bridges follow the written chain, without caps; N, C: chain ends. Non-standard residues stand in square brackets, D forms with d. Groups on a side chain read outwards from the residue. *: point of attachment. Ala(1H-tetrazol-5-yl) = N[C@@H](Cc1nnn[nH]1)C(=O)O; Dip = N[C@H](C(=O)O)C(c1ccccc1)c1ccccc1; His(τ-Me) = Cn1cnc(C[C@H](N)C(=O)O)c1; Palmitoyl = CCCCCCCCCCCCCCCC(=O)*; β3hF = N[C@H](CC(=O)O)Cc1ccccc1; Isovaleryl = CC(C)CC(=O)*; Ahx = NCCCCCC(=O)O
The following binders are listed with their measured FPN EC50 values.
Quick note: give the figure in nM, leave out the unit.

{"BINDER": "Isovaleryl-[Ala(1H-tetrazol-5-yl)]T[His(τ-Me)][Dip]PIIK([Ahx-Palmitoyl])[β3hF]-NH2 [Isovaleric Acid-[Tet1]-T-[His_1Me]-[Dpa]-P-I-I-[Lys(Ahx_Palm)]-[bhPhe]-NH2]", "RESULT": 33.4}

What does the record list as FPN EC50 for Isovaleryl-ATH[Dip]PKIE[β3hF]K([Ahx-Palmitoyl])R-NH2 (lactam 6-8; SMILES CCCCCCCCCCCCCCCC(=O)NCCCCCC(=O)NCCCC[C@H](NC(=O)C[C@H](Cc1ccccc1)NC(=O)[C@@H]1CCC(=O)NCCCC[C@H](NC(=O)[C@@H]2CCCN2C(=O)[C@@H](NC(=O)[C@H](Cc2c[nH]cn2)NC(=O)[C@@H](NC(=O)[C@H](C)NC(=O)CC(C)C)[C@@H](C)O)C(c2ccccc2)c2ccccc2)C(=O)N[C@@H]([C@@H](C)CC)C(=O)N1)C(=O)N[C@@H](CCCNC(=N)N)C(N)=O) [Isovaleric Acid-A-T-H-[Dpa]-P-K-I-E-[bhPhe]-[Lys(Ahx_Palm)]-R-NH2; (K and E cyclized)] ?
90.7
